Reference source: the supplement of paper PMC7877785

experiment: self-splicing fitness, log relative to wild type (ln ratio); higher = more splicing; Tetrahymena group I intron in knt gene, E. coli kanamycin selection, DiMSum; sequences stand for … in CUCUCU…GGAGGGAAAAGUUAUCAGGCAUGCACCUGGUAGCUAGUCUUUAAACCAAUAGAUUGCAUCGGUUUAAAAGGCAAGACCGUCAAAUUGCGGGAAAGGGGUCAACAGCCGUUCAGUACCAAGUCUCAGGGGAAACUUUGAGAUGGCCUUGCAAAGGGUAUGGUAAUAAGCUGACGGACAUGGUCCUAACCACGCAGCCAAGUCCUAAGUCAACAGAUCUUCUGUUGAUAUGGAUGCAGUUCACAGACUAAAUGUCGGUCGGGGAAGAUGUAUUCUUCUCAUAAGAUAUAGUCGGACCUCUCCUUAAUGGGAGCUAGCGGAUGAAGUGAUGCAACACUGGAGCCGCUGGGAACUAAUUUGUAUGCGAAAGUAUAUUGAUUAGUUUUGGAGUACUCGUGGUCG; conditions: 30 °C;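 also: selection with 25 µg/mL kanamycin versus none on LB agar overnight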
Please respond with reported self-splicing fitness (ln) for every item in the list.
Numbers only.

Solved entries:
AUGAAGCAAUAUUACGUGAG    -1.27
GCGAAGCAAUAUUACGAAGG    -0.597
CUGAAGCAAUAUUACGUAGC    -4.07
AUUUAGCAAUAUUACGUCUC    -3.59
ACUUAGCAAUAUUACGGUGA    -1.76

Hey, can you go through the list below and give me self-splicing fitness (ln) for every item?
1. GUCAAGCAAUAUUACGGCUC
2. AGCAAGCAAUAUUACGCAGG
3. CUUAAGCAAUAUUACGGAUU
4. UAGUAGCAAUAUUACGAGGG
5. UGGGAGCAAUAUUACGGGAC
6. UUAGAGCAAUAUUACGCUUC

*A*
-0.927
-2.95
-3.94
-3.04
-4.71
-2.81

Hey, can you go through the list below and give me self-splicing fitness (ln) for every item?
1. AUCUAGCAAUAUUACGGGGU
2. UCGAAGCAAUAUUACGCGAG
3. UCUAAGCAAUAUUACGUAUU
4. UAGUAGCAAUAUUACGGCCG
5. GCGCAGCAAUAUUACGUGGG
6. CCCCAGCAAUAUUACGCCAA
7. GAGUAGCAAUAUUACGAAGU
8. UGCAAGCAAUAUUACGAGAU

*A*
1: -3; 2: -1.47; 3: -3.09; 4: 0.0089; 5: -2.53; 6: -2.64; 7: -2.93; 8: -3.16

###

test: self-splicing fitness, log relative to wild type (ln ratio); higher = more splicing; Tetrahymena group I intron in knt gene, E. coli kanamycin selection, DiMSum; sequences stand for … in CUCUCU…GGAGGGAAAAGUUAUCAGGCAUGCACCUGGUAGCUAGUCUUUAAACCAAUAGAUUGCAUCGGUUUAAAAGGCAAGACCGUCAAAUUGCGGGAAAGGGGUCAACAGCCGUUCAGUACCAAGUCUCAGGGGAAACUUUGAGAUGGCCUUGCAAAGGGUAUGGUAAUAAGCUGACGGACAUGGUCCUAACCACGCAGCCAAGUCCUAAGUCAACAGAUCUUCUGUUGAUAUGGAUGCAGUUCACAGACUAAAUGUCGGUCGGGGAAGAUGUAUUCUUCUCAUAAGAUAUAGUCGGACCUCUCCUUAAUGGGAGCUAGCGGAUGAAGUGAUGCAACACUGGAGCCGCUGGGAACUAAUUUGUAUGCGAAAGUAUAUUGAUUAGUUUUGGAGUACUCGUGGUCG; settings: 37 °C
QUANTITY KIND: self-splicing fitness (ln)
Numbers only.

Solved entries:
UCGCAGCAAUAUUACGGGCG    -0.856
GACGAGCAAUAUUACGAUAA    -2.09
UUAUAGCAAUAUUACGAGAU    -3.38
UCAGAGCAAUAUUACGACGG    0.304
CACUAGCAAUAUUACGGUGC    -2.43
CAAGAGCAAUAUUACGAGAU    -2.8

Hey, can you go through the list below and give me self-splicing fitness (ln) for every item?
1. UCGCAGCAAUAUUACGUAAA
2. UUUUAGCAAUAUUACGCUAG

*A*
1. -1.12
2. -1.7

Hey, can you go through the list below and give me self-splicing fitness (ln) for every item?
1. CUUCAGCAAUAUUACGUCAU
2. CCUGAGCAAUAUUACGCCCA

*A*
-3.76
-2.05

Hey, can you go through the list below and give me self-splicing fitness (ln) for every item?
1. UGUCAGCAAUAUUACGUUAG
2. UUCGAGCAAUAUUACGUUGA
3. AAAAAGCAAUAUUACGUGAG

*A*
1. -0.704
2. -2
3. -0.523

###

test: self-splicing fitness, log relative to wild type (ln ratio); higher = more splicing; Tetrahymena group I intron in knt gene, E. coli kanamycin selection, DiMSum; sequences stand for … in CUCUCU…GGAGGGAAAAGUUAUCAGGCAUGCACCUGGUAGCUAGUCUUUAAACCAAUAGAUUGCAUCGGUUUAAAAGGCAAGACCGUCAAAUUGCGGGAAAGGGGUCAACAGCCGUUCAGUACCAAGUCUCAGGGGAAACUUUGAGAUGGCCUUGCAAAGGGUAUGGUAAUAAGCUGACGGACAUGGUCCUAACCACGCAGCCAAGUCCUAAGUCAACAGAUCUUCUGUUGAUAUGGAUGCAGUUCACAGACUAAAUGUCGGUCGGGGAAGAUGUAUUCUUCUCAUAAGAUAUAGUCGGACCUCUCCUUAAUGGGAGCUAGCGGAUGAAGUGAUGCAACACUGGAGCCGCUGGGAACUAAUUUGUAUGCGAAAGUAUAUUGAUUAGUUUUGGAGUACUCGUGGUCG; conditions: 37 °C
QUANTITY KIND: self-splicing fitness (ln)
One number for each entry.

Solved entries:
UGUUAGCAAUAUUACGCGUA    -0.454
GCACAGCAAUAUUACGCGUU    -0.545
UCCCAGCAAUAUUACGGUAA    0.262
AAACAGCAAUAUUACGCAAA    -1.75

Here is another sequence to look at.
*Q* Return value of self-splicing fitness (ln) for input GGCUAGCAAUAUUACGUUUU , no commentary.
*A* -0.0101

###

Please respond with reported self-splicing fitness (ln) for every item in the list.
assay: self-splicing fitness, log relative to wild type (ln ratio); higher = more splicing; Tetrahymena group I intron in knt gene, E. coli kanamycin selection, DiMSum; sequences stand for … in CUCUCU…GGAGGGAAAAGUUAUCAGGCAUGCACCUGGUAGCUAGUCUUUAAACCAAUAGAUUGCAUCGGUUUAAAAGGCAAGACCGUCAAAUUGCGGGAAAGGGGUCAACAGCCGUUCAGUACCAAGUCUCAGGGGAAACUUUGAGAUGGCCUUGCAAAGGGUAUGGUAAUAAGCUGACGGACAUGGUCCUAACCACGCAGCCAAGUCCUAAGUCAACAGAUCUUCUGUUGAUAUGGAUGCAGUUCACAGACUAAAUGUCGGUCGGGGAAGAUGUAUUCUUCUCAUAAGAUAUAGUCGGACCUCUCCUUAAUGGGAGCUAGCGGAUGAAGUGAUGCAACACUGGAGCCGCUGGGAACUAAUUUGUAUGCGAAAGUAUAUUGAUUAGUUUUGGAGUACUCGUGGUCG; conditions: 37 °C
One number for each entry.

Solved entries:
CCUCAGCAAUAUUACGUCCA    -3
AGUAAGCAAUAUUACGGGCU    -1.6
GAUCAGCAAUAUUACGUUCA    -0.942
GUCAAGCAAUAUUACGACGC    0.832
GGUCAGCAAUAUUACGCGGU    -2.26
GCGCAGCAAUAUUACGUGGG    -1.6

Hey, can you go through the list below and give me self-splicing fitness (ln) for every item?
1. GUAGAGCAAUAUUACGCAUA
2. GGCCAGCAAUAUUACGCUGU
3. UGUUAGCAAUAUUACGUAGG
4. ACUAAGCAAUAUUACGGCCU

*A*
1: -1.59; 2: -1.37; 3: -0.461; 4: -0.475

###

experiment: self-splicing fitness, log relative to wild type (ln ratio); higher = more splicing; Tetrahymena group I intron in knt gene, E. coli kanamycin selection, DiMSum; sequences stand for … in CUCUCU…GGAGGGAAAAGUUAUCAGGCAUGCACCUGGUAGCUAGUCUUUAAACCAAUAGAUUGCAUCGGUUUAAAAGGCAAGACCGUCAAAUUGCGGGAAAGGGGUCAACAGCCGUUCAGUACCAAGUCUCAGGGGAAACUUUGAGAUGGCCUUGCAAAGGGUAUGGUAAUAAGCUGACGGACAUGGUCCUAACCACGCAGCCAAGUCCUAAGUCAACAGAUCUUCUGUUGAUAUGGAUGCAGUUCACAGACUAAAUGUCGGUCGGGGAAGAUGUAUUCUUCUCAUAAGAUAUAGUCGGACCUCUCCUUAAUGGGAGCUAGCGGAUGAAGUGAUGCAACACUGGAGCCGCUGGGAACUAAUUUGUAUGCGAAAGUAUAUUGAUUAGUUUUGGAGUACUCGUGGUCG; conditions: 30 °C
Outcome: Criterion met for self-splicing fitness (ln) of at least -2; Criterion not met for anything lower.

Sample answers from the record:
CUUAAGCAAUAUUACGCUAC    Criterion not met
UUGUAGCAAUAUUACGCGUG    Criterion met
CACUAGCAAUAUUACGCACA    Criterion met
UUACAGCAAUAUUACGACUA    Criterion met
GCUCAGCAAUAUUACGCGCG    Criterion met
CUACAGCAAUAUUACGCUGA    Criterion not met
CCUAAGCAAUAUUACGCCCA    Criterion not met
CUACAGCAAUAUUACGCGAU    Criterion not met
UCUCAGCAAUAUUACGAAGG    Criterion not met
CCUUAGCAAUAUUACGAUUC    Criterion not met

*Q* Given the entry CCGCAGCAAUAUUACGGAUU , answer whether its self-splicing fitness (ln) meets or surpasses -2.
*A* Criterion not met

*Q* Given the entry AAAUAGCAAUAUUACGUGCC , answer whether its self-splicing fitness (ln) meets or surpasses -2.
*A* Criterion met

*Q* Given the entry UGUCAGCAAUAUUACGAAUC , answer whether its self-splicing fitness (ln) meets or surpasses -2.
*A* Criterion not met

*Q* Given the entry CAGAAGCAAUAUUACGACCG , answer whether its self-splicing fitness (ln) meets or surpasses -2.
*A* Criterion met

*Q* Given the entry GCACAGCAAUAUUACGAUGC , answer whether its self-splicing fitness (ln) meets or surpasses -2.
*A* Criterion not met

*Q* Given the entry GACCAGCAAUAUUACGCAGA , answer whether its self-splicing fitness (ln) meets or surpasses -2.
*A* Criterion met

*Q* Given the entry UCGCAGCAAUAUUACGACCA , answer whether its self-splicing fitness (ln) meets or surpasses -2.
*A* Criterion met
